Value source: ChEMBL document CHEMBL3632518

System: Hepatitis C virus
assaySummary: Antiviral activity against HCV genotype 1b infected in human HuH7 cells after 3 days by luciferase reporter gene assay
Assay type: functional, organism-based, Hepacivirus hominis
conditionDescription: Huh-7, 72 h
pEC50: −log10 of the molar value.
readoutType: pEC50

Examples with answers:
{"smilesRepr": "COc1ccccc1NC(=O)c1c(NCCO)cc(-c2ccc(Br)cc2)oc1=O", "pEC50": "< 4.70"}
{"smilesRepr": "COc1cccc(NC(=O)c2c(NCCO)cc(-c3cccs3)oc2=O)c1", "pEC50": "< 4.70"}
{"smilesRepr": "O=C(Nc1ccc(F)cc1)c1c(NCCO)cc(-c2cccc(Br)c2)oc1=O", "pEC50": 5.26}
{"smilesRepr": "COc1cccc(NC(=O)c2c(NCCO)cc(-c3ccc(Br)cc3)oc2=O)c1", "pEC50": "< 4.70"}

With those in mind, consider the next compound.
So what does the record say about pEC50 for `CCOc1ccccc1NC(=O)c1c(NCCO)cc(-c2ccccc2)oc1=O` ?
< 4.70
